System: A549
Assay: Antiproliferative activity against human A549 cells incubated for 48 hrs by MTT assay
Format: functional, cell-based
Conditions: A549, 48 h
pIC50: −log10 of the molar value.
recorded metric: pIC50

See these solved cases before continuing.
INSERT INTO results (query_smiles, experimental_system, recorded_metric, result) VALUES
  ('Cn1cc(-c2cnc3ccnc(NS(=O)(=O)c4c(Cl)cccc4Cl)c3c2)cn1', 'A549', 'pIC50', '< 4.30'),
  ('Cc1ccc(S(=O)(=O)Nc2nccc3ncc(-c4cnn(C)c4)cc23)cc1', 'A549', 'pIC50', '< 4.30'),
  ('Cn1cc(-c2cnc3ccc(NS(=O)(=O)c4cccs4)nc3c2)cn1', 'A549', 'pIC50', 4.40),
  ('Cn1cc(-c2cnc3ccc(NC(=O)c4cccnc4)nc3c2)cn1', 'A549', 'pIC50', '< 4.30'),
  ('Cn1cc(-c2cnc3ccnc(NC(=O)c4cccnc4)c3c2)cn1', 'A549', 'pIC50', '< 4.30'),
  ('Cn1cc(-c2cnc3ccnc(NC(=O)C4CC4)c3c2)cn1', 'A549', 'pIC50', '< 4.30'),
  ('Cn1cc(-c2cnc3ccnc(N)c3c2)cn1', 'A549', 'pIC50', 4.48),
  ('Cn1cc(-c2cnc3ccnc(NC(=O)c4ccc(F)cc4)c3c2)cn1', 'A549', 'pIC50', '< 4.30'),
  ('Cn1cc(-c2cnc3ccnc(NCC4CC4)c3c2)cn1', 'A549', 'pIC50', 5.05),
  ('Cn1cc(-c2cnc3ccc(NS(=O)(=O)c4ccc(Cl)cc4Cl)nc3c2)cn1', 'A549', 'pIC50', '< 4.30');

// query Look up and state reported pIC50 for `COc1ccc(CNc2ccc3ncc(-c4cnn(C)c4)cc3n2)cc1`
// result < 4.30

// query Look up and state reported pIC50 for `CCNc1nccc2ncc(-c3cnn(C)c3)cc12`
// result 4.39

// query Look up and state reported pIC50 for `COc1ccc(C(=O)Nc2nccc3ncc(-c4cnn(C)c4)cc23)cc1`
// result < 4.30

// query Look up and state reported pIC50 for `Cn1cc(-c2cnc3ccnc(NS(=O)(=O)c4cccs4)c3c2)cn1`
// result 5.03

// query Look up and state reported pIC50 for `CC(=O)Nc1ccc2ncc(-c3cnn(C)c3)cc2n1`
// result < 4.30

// query Look up and state reported pIC50 for `Cc1ccc(S(=O)(=O)Nc2ccc3ncc(-c4cnn(C)c4)cc3n2)cc1`
// result 4.34

// query Look up and state reported pIC50 for `CC(=O)Nc1nccc2ncc(-c3cnn(C)c3)cc12`
// result < 4.30

// query Look up and state reported pIC50 for `Cn1cc(-c2cnc3ccc(NC(=O)c4ccc(F)cc4)nc3c2)cn1`
// result < 4.30
